Experiment: tmax in hours at a iv dose of 4.0(pmol/g/h).
Type: ADME, organism-based
Details: in vivo
MEASURED_ENDPOINT: Tmax (h)
Answers are plain numbers, in h.

// Tmax lookup, compound = CCCN(CCC)[C@@H]1CCc2ccc3[nH]c(C#N)cc3c2C1 [U-92,016-A] , result: 4

* * *

Give measured Ki for each item. Keep answers brief.
Target: 5-hydroxytryptamine receptor 1B (Homo sapiens)
Sequence (P28222 whole entry): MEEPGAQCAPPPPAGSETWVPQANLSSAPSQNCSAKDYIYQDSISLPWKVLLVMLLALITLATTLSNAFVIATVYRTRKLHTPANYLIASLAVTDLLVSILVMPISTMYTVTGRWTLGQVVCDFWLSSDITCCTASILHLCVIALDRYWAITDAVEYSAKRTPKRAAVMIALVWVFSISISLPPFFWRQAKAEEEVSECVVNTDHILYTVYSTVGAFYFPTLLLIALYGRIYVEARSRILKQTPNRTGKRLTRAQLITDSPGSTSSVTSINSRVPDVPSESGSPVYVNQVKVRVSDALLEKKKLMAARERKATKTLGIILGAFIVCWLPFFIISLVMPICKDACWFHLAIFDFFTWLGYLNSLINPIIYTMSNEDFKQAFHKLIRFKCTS
Assay: Binding affinity against 5-hydroxytryptamine 1D receptor beta expressed in CHO-K1 cells, using [3H]5-HT as the radioligand.
Type: cell-based
Details: read-out: Ki
Answers are plain numbers, in µM.

Below are worked cases with known answers.
Lab note: CCCN(CCC)C1CCc2ccc3[nH]cc(S(C)(=O)=O)c3c2C1 (stereo unspecified) gave Ki of 0.373

Entry under test: CCCN(CCC)C1CCc2cc(F)c3c(c(C=O)cn3C)c2C1 (stereo unspecified) . Its Ki was 0.618

Entry CCCNC1CCc2cc(F)ccc2C1 (stereo unspecified) , Ki reported as 1.51

// recorded Ki for CCCN(CCC)C1CCc2ccc3[nH]cc(C(=O)C(F)(F)F)c3c2C1 (stereo unspecified) : 0.279

The value of Ki measured for the compound CCCN(CCC)C1CCc2cc(F)c3[nH]cc(C=O)c3c2C1 (stereo unspecified) turned out to be 0.082

Moving on to another compound below.
Quick note, Ki for CCCN(CCC)C1CCc2cc(F)c3[nH]cc(C#N)c3c2C1 (stereo unspecified) landed at 0.121

* * *

Assay: tmax in hours at a po dose of 20.0(pmol/g/h).
Assay type: ADME, organism-based
Details: in vivo
MEASURED_ENDPOINT: Tmax (min)
One number for each entry, in min.

Quick note, Tmax for CCCN(CCC)C1CCc2cccc(O)c2C1 (stereo unspecified) landed at 29

* * *

Assignment: determine reported ED50 for the given compounds.
Test system: Rattus norvegicus
Test: In vivo for DOPA accumulation in limbic system against reserpine-pretreated rats.
Format: functional
One number for each entry, in µmol/kg.

In the examples that follow, each entry is paired with its recorded ED50.
Value of measured ED50 for the entry CCCN(CCC)C1CCc2ccc3c(c2C1)CC(=O)N3 (centres undefined) : 0.17

What the record says about CCCN(CCC)C1CCc2ccc3[nH]ccc3c2C1 (centres undefined) : ED50 is 0.15

Reported ED50 ( `CCCN(CCC)[C@H]1CCc2cc(F)c3[nH]ccc3c2C1` ) = 0.8

Further cases:
Summary for this compound, CCCN(CCC)C1CCc2cc(F)c3[nH]cc(C#N)c3c2C1 (centres undefined) : ED50 is 0.55

* * *

Target: D(2) dopamine receptor (Rattus norvegicus, UniProt P61169)
Sequence (P61169 whole entry): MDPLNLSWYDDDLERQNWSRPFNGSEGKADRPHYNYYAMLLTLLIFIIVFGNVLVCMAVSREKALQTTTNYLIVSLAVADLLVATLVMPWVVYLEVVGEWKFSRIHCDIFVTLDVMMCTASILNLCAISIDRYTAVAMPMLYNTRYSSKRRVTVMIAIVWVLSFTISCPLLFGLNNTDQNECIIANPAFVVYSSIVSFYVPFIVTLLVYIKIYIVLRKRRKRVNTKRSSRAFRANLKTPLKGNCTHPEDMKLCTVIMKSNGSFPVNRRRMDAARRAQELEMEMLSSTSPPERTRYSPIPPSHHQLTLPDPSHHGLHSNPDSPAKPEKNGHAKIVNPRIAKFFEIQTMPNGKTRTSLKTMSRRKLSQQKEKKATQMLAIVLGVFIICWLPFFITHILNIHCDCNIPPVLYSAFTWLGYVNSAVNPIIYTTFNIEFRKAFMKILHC
Test: Binding affinity against Dopamine receptor D2 from CHO-K1 cells, using [3H]U-86,170 as the radioligand.
Type: cell-based
pKi: −log10 of the molar value.
Rule: pKi under 7 gives no (0), otherwise yes (1).

Please review the entries below; each comes with its answer.
Has `CCCN(CCC)[C@@H]1CCc2cc(F)c3[nH]cc(C=O)c3c2C1` a recorded pKi greater than or equal to 7?
yes (1)

Is it the case that `CCCN(CCC)[C@H]1CCc2cc(F)c3[nH]cc(C=O)c3c2C1` has pKi reaching or exceeding 7?
no (0)

Would you say CCCN(CCC)C1CCc2cccc(O)c2C1 (stereo unspecified) [8-OH-DPAT] shows pKi at minimum 7?
no (0)

hey, is pKi for this one >= 7? CCCN(CCC)C1CCc2ccc3[nH]cc(C(=O)C(F)(F)F)c3c2C1 (stereo unspecified)
no (0)

Test whether the compound CCCc1c[nH]c2c(F)cc3c(c12)CC(N(CCC)CCC)CC3 (stereo unspecified) records pKi of 7 or higher.
yes (1)

Please look at the following compound next.
Is it the case that `CCCN(CCC)[C@@H]1CCc2ccc3[nH]cc(C=O)c3c2C1` has pKi reaching or exceeding 7?
yes (1)

Origin of measurements: ChEMBL document CHEMBL1128401
